Biological target: T1, Bcat-Halo (beta-catenin HaloTag construct transfected into HEK293 cells) (UniProt P35222 1-781)
T1 sequence (looked up): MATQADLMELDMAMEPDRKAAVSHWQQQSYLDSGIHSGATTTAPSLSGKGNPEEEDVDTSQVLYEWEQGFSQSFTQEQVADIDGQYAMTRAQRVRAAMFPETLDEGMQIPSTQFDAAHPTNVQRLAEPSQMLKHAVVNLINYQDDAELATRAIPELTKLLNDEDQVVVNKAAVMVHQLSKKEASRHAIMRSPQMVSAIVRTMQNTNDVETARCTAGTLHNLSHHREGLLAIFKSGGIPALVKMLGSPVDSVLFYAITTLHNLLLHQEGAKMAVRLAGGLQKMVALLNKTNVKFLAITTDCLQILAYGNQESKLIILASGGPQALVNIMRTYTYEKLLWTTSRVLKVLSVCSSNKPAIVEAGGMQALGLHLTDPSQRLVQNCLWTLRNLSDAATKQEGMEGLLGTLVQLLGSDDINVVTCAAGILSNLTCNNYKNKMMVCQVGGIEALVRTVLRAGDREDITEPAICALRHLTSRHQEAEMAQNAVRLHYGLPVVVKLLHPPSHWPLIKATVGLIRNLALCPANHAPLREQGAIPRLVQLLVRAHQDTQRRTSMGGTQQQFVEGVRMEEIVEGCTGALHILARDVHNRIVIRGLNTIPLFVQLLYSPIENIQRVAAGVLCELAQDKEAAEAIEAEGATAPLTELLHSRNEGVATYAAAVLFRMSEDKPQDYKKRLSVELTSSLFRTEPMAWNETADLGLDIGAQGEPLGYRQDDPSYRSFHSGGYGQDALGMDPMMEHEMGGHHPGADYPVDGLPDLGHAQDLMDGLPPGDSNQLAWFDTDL
Experiment: cell-based or functional assay
Starred links: 1 amine or outer side, 2 acyl side, 3 side chain; linkers in the order of their positions; H or OH if unused. Positions of bridges follow the written chain, without caps; N, C: chain ends. Non-standard residues stand in square brackets, D forms with d. Groups on a side chain read outwards from the residue. Primed or numbered codes have the meaning given here. *: point of attachment. PyrS2″ = (S)-3-amino-1-((pent-4-en-1-yloxy)carbonyl)pyrrolidine-3-carboxylic acid (stapling residue), C=CCCCOC(=O)N1CC[C@@](N[*:1])(C(=O)[*:2])C1; B5(4) = 2,2-bis(4-pentenyl)glycine = 2-amino-2-(pent-4-en-1-yl)hept-6-enoic acid (stitching residue), C=CCCCC(CCCC=C)(N[*:1])C(=O)[*:2]; F2PipNva = (S)-2-amino-5-(4,4-difluoropiperidin-1-yl)pentanoic acid, O=C([C@H](CCCN1CCC(F)(F)CC1)N[*:1])[*:2]; Lithocholoyl = C[C@H](CCC(=O)*)[C@H]1CC[C@H]2[C@@H]3CC[C@@H]4C[C@H](O)CC[C@]4(C)[C@H]3CC[C@]12C; B5(3) = 2,2-bis(4-pentenyl)glycine (stitching residue), C=CCCCC(CCCC=C)(N[*:1])C(=O)[*:2]; Phe(3-COOH) = N[C@@H](Cc1cccc(C(=O)O)c1)C(=O)O; Bta = N[C@@H](Cc1csc2ccccc12)C(=O)O; αAllylPro = C=CC[C@@]1(C(=O)O)CCCN1; tBuAla = CC(C)(C)C[C@H](N)C(=O)O; 3Thi = N[C@@H](Cc1ccsc1)C(=O)O; PEG2′ = not defined here
MEASURE_NAME: NanoBRET Abs IC50 (µM)
State just the number; it will be interpreted in µM.

1. Ac-[αAllylPro]D[tBuAla][B5(4)]DDAAFL[PyrS2″][3Thi][Bta]QK([PEG2′-Lithocholoyl])-NH2 (staple 1-4, 4-11) [I-1478] | 17.1

Suppose we examine the binder Ac-[αAllylPro]D[tBuAla][B5(3)]DD[F2PipNva]AFL[PyrS2″][3Thi][Bta]Q-NH2 (staple 1-4, 4-11) [I-1482] ; what NanoBRET Abs IC50 value has been reported?
18

Entry Ac-[αAllylPro]D[tBuAla][B5(4)]D[Phe(3-COOH)]AAFL[PyrS2″][3Thi][Bta]Q-NH2 (staple 1-4, 4-11) [I-1462] : reported NanoBRET Abs IC50 = ?
2.3
